Here, each record is paired with measured inhibition data.
Target: Lon protease (Escherichia coli (strain K12))
Assay: inhibitors of E. coli Lon protease, primary screen, biochemical, fluorescence polarization (AID 602123);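 further: 0% = enzyme with probe and DMSO and 100% = no enzyme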
Conditions: purified E. coli Lon protease, at 7.94 µM, hits give high values
Hit rate of the full screen: of about 360,000 compounds, about 1,500 (0.42%) were called active. The sample as a whole holds a higher share of actives than the screen did.

# compound, inhibition / %
rows = [
    ("Cc1[nH]c2ccccc2c1CCN(Cc1cccs1)C(=S)NC(C)(C)C", -6.78),
    ("CCN1CCN(C2CCCCC2NS(=O)(=O)c2ccc(Cl)cc2)CC1 (stereo unspecified)", -11.9),
    ("CC(C)Oc1ccccc1C(=O)NC(CO)C(=O)O (stereo unspecified)", -0.19),
    ("O=C(NCCc1ccco1)C(=O)NCCC1CCCCN1S(=O)(=O)c1ccccc1 (stereo unspecified)", 0.36),
    ("NC(=O)C1CCCN(CC(=O)N2CCN(c3ccccc3)CC2)C1 (stereo unspecified)", -1.63),
    ("O=C1CCC(=O)N1c1ccc(NCCc2ccccc2F)c([N+](=O)[O-])c1", 0.67),
    ("COc1ccc(N2CCN(C3CCCCC3NS(=O)(=O)c3ccccc3)CC2)cc1 (stereo unspecified)", 17.2),
    ("N#Cc1c(N)nc2c3c(sc(=N)c2c1N)NC(=O)CC3c1ccccc1Cl (stereo unspecified)", -13.5),
    ("CN(C)Cc1c(C(=O)N/N=C/c2ccccc2OCc2ccc(F)cc2)nnn1-c1nonc1N", 18.9),
    ("C[C@H]1CN([C@@H](C)CO)C(=O)CCCn2cc(nn2)CO[C@@H]1CN(C)S(=O)(=O)c1ccc(-n2cccn2)cc1", 7.06),
    ("CN1/C(=c2/s/c(=C3/C(=O)N(c4ccccc4)NC3=Nc3ccccc3)n(C)c2=O)C(C)(C)c2ccccc21", -167),
    ("COc1cccc(CNC(=O)CCC2CCCN(C(=O)c3ccc(F)c(Cl)c3)C2)c1 (stereo unspecified)", -13.9),
    ("CC(C)n1c(O)c(N=Nc2ccccn2)c2ccccc21", -4.1),
    ("CS(=O)(=O)N(C(=O)NC(=O)NC1CCS(=O)(=O)C1)C1CCCCC1 (stereo unspecified)", -6.98),
    ("COc1c(C(=O)N2CCCC2)ccc2ccccc12", -2.3),
    ("COC(=O)CNS(=O)(=O)c1ccc(Cc2ccc(S(=O)(=O)NCC(=O)OC)cc2)cc1", 5.06),
    ("CN(C)c1ccc(C2N(C)C(=O)c3ccccc3N2C)cc1 (stereo unspecified)", -1.4),
    ("COc1cccc2sc(N(CCCN(C)C)C(=O)CCS(=O)(=O)c3ccccc3)nc12", 22.5),
    ("COc1cc(OC)c2ccc(=O)oc2c1C(CCN1CCN(c2ccccc2)CC1)c1ccc2c(c1)OCO2 (stereo unspecified)", -2.01),
    ("CCn1cc(/C=C(\\NC(=O)c2ccc(C)cc2)C(=O)NCCN2CCOCC2)c2ccccc21", -56.3),
    ("Cc1ccc(N(C(=O)c2sc(C)nc2C)C(C(=O)NC(C)(C)C)c2ccncc2)cc1 (stereo unspecified)", 2.66),
    ("CSc1nc(C)nc(C2CC2)c1C#N", 5.92),
    ("COC(=O)C[n+]1cccc2ccccc21", 99.9),
    ("CCN(CC)Cc1c(C(=O)N/N=C/c2cccc(OCc3ccc(F)cc3)c2)nnn1-c1nonc1N", 5.3),
    ("CCOC(=O)C(C(=O)c1ccccc1)C(c1ccccc1)c1nccc2ccccc12 (stereo unspecified)", -5.25),
    ("CN(C)c1ccc(Nc2c3c4c(cccc4n(C)c2=O)C(=O)c2ccccc2-3)cc1", 48.2),
]
